biological target: c-Src SH2; test: SH2 binding enrichment of the phosphorylated peptide, bacterial display (enrichment ratio); higher = better substrate or ligand; peptides without Tyr show the background;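 note: peptide library displayed on the E. coli surface as eCPX fusions, selected cells deep-sequenced, score is each peptide's frequency after selection divided by its frequency in the input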
Tag: true if measured SH2 binding enrichment is not below 0.5, false if it is.

Q: Does SH2 binding enrichment meet or surpass 0.5 for SVSNNYIQTLG [CTNND1_Y174] ?
Result: true

Q: Does SH2 binding enrichment meet or surpass 0.5 for TSSAGYRRTPS [ABI1_Y333_G331A] ?
Result: false

Q: Quick check: does SLGKGYSDGGC [MC4R_Y35] have SH2 binding enrichment greater than or equal to 0.5?
Result: true

Q: Hi, just wondering whether SVTCTYSPALH [TP53_Y126_N131H] shows SH2 binding enrichment of 0.5 or higher.
Result: false

Q: Is SH2 binding enrichment at least 0.5? Consider EEVKAYLDFRE [CHAC2_Y78]
Result: false

Q: Decide: is the reported value of SH2 binding enrichment for NNDLCYWVLEL [IARS1_Y434_P437L] equal to or greater than 0.5?
Result: true

Q: Threshold query (SH2 binding enrichment >= 0.5) on PAQAAYQKVVA [HBB_Y131_V127A]
Result: true

Q: I'd appreciate it if you could say whether LIDTVYSSSSA [OR4C12_Y71] has SH2 binding enrichment at least equal to 0.5.
Result: true

Q: Is SH2 binding enrichment for QVKEQYQDVPM [PKP2_Y659_K654Q] at or above 0.5?
Result: true

Q: Does the sequence KAIMIYVSSFF [ACTN4_Y260_T259I_YF] have recorded SH2 binding enrichment that is 0.5 or more?
Result: true

Q: Entry HAVYIYDICHV [TWNK_Y508_V507I] : is its SH2 binding enrichment no less than 0.5?
Result: true

Q: Is reported SH2 binding enrichment greater than or equal to 0.5 here: MARDISRASFF [ALK_Y1278_Y1278S_YF]
Result: false

Q: State whether the measured SH2 binding enrichment reaches 0.5, counting equality as reaching it, for FSQQTYYPVSN [ABCD1_Y180_R182P]
Result: true

Q: In plain terms: is recorded SH2 binding enrichment at least 0.5 for PYGQWYESHYA [RPS8_Y113_R110G] ?
Result: true

Q: Assess whether reported SH2 binding enrichment for EEGENYQKGER [CHGB_Y173] sits at 0.5 or higher.
Result: false

Q: Say whether TVHCDYLNISH [TAF1L_Y1385_P1389S] shows SH2 binding enrichment of 0.5 or more.
Result: true

Q: hey, is SH2 binding enrichment for this one >= 0.5? PIAPVYAPSMV [ACAT1_Y331_A333P]
Result: true

Q: Evaluate SVTCTYSPGLN [TP53_Y126_A129G] : SH2 binding enrichment at minimum 0.5?
Result: false

Q: Could you please find out whether FSQETYYRVSN [ABCD1_Y180_Q178E] has SH2 binding enrichment that meets 0.5 or exceeds it?
Result: true

Q: Does the reported SH2 binding enrichment for RAIGYYSATSK [FAM120A_Y328] fall at or above the 0.5 mark?
Result: true

Q: Could you tell me if the measured SH2 binding enrichment of `ENAGFYFQVSA` reaches 0.5 or more?
Result: true

Q: Form field: SH2 binding enrichment at least 0.5? Entry: IEELTYIIKQD [STX5_Y137]
Result: false

Q: Please indicate if the recorded SH2 binding enrichment for MTEEQYIKMNR [ARFGEF2_Y797_K794E] meets or exceeds 0.5.
Result: false

Q: Does FDKPVYQKTTE [LDLR_Y828_N825K] have a reported SH2 binding enrichment of at least 0.5?
Result: true

Q: Evaluate LTKQEYDEAGP [ACTA1_Y364_I359L] : SH2 binding enrichment at minimum 0.5?
Result: true

Q: Given GIKAAYEAERG [LMNA_Y81_L85R] , state whether its SH2 binding enrichment is at least 0.5.
Result: true

Q: API: above_or_equal(metric=SH2 binding enrichment, cutoff=0.5) for item SLMNQYVNKKF [RAB7A_Y28]
Result: false

Q: Is reported SH2 binding enrichment greater than or equal to 0.5 here: DMGAQYAAASR [ARID1B_Y483_P488R]
Result: true

Q: Test whether the sequence TDVSLYPSGGT [TENM4_Y399] records SH2 binding enrichment of 0.5 or higher.
Result: false

Q: Please indicate if the recorded SH2 binding enrichment for AASTDYYKRGD [PDHA1_Y242] meets or exceeds 0.5.
Result: false

Q: Does EPVSDYINANV [PTPN11_Y304_I309V] have a reported SH2 binding enrichment of at least 0.5?
Result: false

Q: Quick check, SH2 binding enrichment >= 0.5? QPSALYEDRYL [ASS1_Y83_S79P]
Result: true

Q: Is SH2 binding enrichment at least 0.5? Consider WEPFGFAVTRC [PTPRT_Y412_Y412F]
Result: false

Q: Quick check, SH2 binding enrichment >= 0.5? DAVCYYRMENA [NPHS2_Y195_I192V]
Result: true

Q: Does the reported SH2 binding enrichment for STEAIYWRYSK [SH3PXD2B_Y42_R43W] fall at or above the 0.5 mark?
Result: false

Q: Decide: is the reported value of SH2 binding enrichment for CTTIHYMFMCN [TP53_Y234_N235M_YF] equal to or greater than 0.5?
Result: true

Q: SH2 binding enrichment >= 0.5 for NPQKSCFIRLY [WAS_Y83_Y83C] ?
Result: true

Q: Kindly determine if SH2 binding enrichment recorded for TTKGAYSLSVR [YES1_Y194_I198V] is above or exactly 0.5.
Result: false

Q: Please indicate if the recorded SH2 binding enrichment for DNEFAYLKAII [HNF4A_Y288_YF] meets or exceeds 0.5.
Result: false

###

target: Jak2 (UniProt O60674); assay: phosphorylation enrichment, bacterial display (enrichment ratio); higher = better substrate or ligand; peptides without Tyr show the background
Sequence (O60674 whole entry, looked up): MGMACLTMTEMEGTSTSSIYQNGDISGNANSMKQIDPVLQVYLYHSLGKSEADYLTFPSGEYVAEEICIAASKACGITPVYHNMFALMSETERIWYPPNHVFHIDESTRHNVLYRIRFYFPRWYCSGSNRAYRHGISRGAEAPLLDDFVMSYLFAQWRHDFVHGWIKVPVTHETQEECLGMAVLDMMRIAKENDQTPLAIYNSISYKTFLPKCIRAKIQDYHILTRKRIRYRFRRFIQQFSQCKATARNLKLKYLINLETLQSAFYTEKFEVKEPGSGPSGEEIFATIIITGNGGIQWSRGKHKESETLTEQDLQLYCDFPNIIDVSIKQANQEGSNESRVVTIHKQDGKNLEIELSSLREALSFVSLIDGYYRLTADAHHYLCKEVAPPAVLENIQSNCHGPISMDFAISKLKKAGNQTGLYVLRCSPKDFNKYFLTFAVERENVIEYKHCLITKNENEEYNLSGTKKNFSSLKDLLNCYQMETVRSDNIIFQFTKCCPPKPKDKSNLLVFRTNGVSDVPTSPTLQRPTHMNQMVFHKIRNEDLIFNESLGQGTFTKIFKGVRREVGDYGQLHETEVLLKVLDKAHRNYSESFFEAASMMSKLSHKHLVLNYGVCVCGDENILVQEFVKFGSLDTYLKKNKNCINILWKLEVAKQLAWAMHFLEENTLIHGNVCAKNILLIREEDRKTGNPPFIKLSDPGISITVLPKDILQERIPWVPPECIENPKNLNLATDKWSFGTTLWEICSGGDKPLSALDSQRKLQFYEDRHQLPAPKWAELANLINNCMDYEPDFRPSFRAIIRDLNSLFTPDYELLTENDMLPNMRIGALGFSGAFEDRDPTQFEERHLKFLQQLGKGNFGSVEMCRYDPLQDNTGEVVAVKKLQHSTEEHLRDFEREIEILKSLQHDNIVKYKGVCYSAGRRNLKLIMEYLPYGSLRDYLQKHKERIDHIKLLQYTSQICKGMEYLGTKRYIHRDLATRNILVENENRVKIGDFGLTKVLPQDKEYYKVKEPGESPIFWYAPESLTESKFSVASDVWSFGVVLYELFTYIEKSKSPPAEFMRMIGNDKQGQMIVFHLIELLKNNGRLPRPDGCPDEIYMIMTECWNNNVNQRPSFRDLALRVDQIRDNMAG
measure: phosphorylation enrichment
Answer field: number only, no words.

Q: State its phosphorylation enrichment for this sequence: MTFQNYGQALF [FAM20C_Y279]
Result: 0.893

Q: State its phosphorylation enrichment: RLLVVYRWTQR [HBB_Y36_P37R]
Result: 0.926

Q: Determine from records and report phosphorylation enrichment for LEQQKYTVTID [IKBKB_Y199_V203I]
Result: 1.02

###

molecular target: FGFR3 (UniProt P22607); experiment: phosphorylation enrichment, bacterial display (enrichment ratio); higher = better substrate or ligand; peptides without Tyr show the background
Sequence (P22607 whole entry, looked up): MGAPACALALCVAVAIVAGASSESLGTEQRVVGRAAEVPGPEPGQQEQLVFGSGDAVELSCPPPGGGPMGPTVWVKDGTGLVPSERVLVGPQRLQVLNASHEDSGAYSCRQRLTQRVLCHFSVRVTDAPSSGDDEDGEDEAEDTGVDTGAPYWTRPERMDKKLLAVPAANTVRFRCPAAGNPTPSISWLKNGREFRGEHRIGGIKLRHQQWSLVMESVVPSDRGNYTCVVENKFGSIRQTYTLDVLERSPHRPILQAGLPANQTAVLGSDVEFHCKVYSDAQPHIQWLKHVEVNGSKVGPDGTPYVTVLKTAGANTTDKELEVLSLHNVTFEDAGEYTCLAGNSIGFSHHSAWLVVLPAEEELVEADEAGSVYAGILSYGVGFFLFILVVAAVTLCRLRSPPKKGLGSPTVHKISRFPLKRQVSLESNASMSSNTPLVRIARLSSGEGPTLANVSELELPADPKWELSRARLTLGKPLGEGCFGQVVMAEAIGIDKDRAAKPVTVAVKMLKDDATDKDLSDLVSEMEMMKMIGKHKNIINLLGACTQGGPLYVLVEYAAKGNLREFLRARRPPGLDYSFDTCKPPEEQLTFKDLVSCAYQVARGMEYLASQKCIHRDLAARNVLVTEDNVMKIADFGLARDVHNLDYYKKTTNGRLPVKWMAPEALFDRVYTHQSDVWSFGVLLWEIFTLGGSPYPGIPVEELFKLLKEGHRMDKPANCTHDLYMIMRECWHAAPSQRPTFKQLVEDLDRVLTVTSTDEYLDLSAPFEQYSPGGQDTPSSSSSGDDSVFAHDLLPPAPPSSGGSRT
measure: phosphorylation enrichment
Respond with the number and no other words.

Q: Give the reported value of phosphorylation enrichment for this record: EQLGEYKFQNA [ALB_Y425]
Result: 0.5

Q: Quote phosphorylation enrichment reported for RHYVYYYSYLL [PTEN_Y177_R173H] please.
Result: 6.42

Q: Supply phosphorylation enrichment value. Item: ARLEYYENEKK [IRS1_Y47]
Result: 0.733

Q: State its phosphorylation enrichment for this sequence: NNTFLYQLVFD [EXO1_Y284]
Result: 1.72

Q: Quick one: give measured phosphorylation enrichment for DEFLEYRRIVG [FAM221A_Y20_YF]
Result: 0.551

Q: Read off the recorded phosphorylation enrichment for IEPVIYVVQRR [ANOS1_Y217]
Result: 0.475

Q: Input RPFSPYIIRGM [LRP5_Y1531_R1529S_YF] , output reported phosphorylation enrichment.
Result: 0.71

Q: Tell me its phosphorylation enrichment given FKEQGYHRLPP [RIN1_Y681_YF] as the entry.
Result: 0.528

Q: Report phosphorylation enrichment for CSKRFYQLTKL [AR_Y858_R855K]
Result: 0.556

Q: Name the recorded phosphorylation enrichment of the sequence listed here: QDEHGYISWCF [HSPB1_Y133_R136W]
Result: 1.8

Q: Give a short answer stating reported phosphorylation enrichment for IPTPAYQSLPA [PDCD6IP_Y727_S730L] .
Result: 0.711

Q: Item PSDPSYEDMRE [BMPR1A_Y467] : provide phosphorylation enrichment
Result: 1.27

Q: Provide one value: measured phosphorylation enrichment of IMAFFYMCDRA [CASD1_Y382_YF]
Result: 1.12

Q: Give a short answer stating reported phosphorylation enrichment for SYCYRYRCAAR [SUMF1_Y344] .
Result: 0.448

Q: Return reported phosphorylation enrichment. Input sequence: IKSSIYDNRKE [ARAP2_Y380]
Result: 0.504

Q: Supply phosphorylation enrichment value. Item: AERKLYSGAQT [ZAP70_Y178]
Result: 0.457

Q: Determine from records and report phosphorylation enrichment for DKATEYSQYMR [MAX_Y70_I71S]
Result: 0.541

Q: Supply recorded phosphorylation enrichment for KGIDRYNPENL [EIF3K_Y21] here.
Result: 0.564

Q: Fill in reported phosphorylation enrichment for this entry: SRIWVYNHYRW [BRCA2_Y2621]
Result: 0.845

Q: Look up and report measured phosphorylation enrichment for this entry: GAAMLYFPSVS [GPR143_Y177_YF]
Result: 0.736

Q: Note down phosphorylation enrichment recorded for LFNQDYPIHCV [GATM_Y227_S231C_YF]
Result: 2.52

Q: Note down phosphorylation enrichment recorded for SPLTDYSPQLQ [OTC_Y345_L341P]
Result: 0.489

Q: Please list phosphorylation enrichment recorded for the sequence QPSALYEDRYL [ASS1_Y83_S79P]
Result: 0.625

Q: Annotate the sequence KKIMGYSIRTI [IDS_Y490_I485K] with its measured phosphorylation enrichment.
Result: 0.332

Q: Name the recorded phosphorylation enrichment of the sequence listed here: QEALEYFMKQM [PIK3CA_Y1038]
Result: 0.704

Q: Identify phosphorylation enrichment associated with the sequence CTTIHYNYICN [TP53_Y234_M237I]
Result: 0.654

Q: Give the reported phosphorylation enrichment for this sequence. LICRRYLVMQR [IL3RA_Y328_V323L]
Result: 0.834

Q: Return value of phosphorylation enrichment for input GFVEDYRPPFF [ACVRL1_Y421_I417F_YF] , no commentary.
Result: 0.6

Q: Give the measured phosphorylation enrichment for EWLRRYLENGK [HLA-A_Y195]
Result: 0.498

Q: Return phosphorylation enrichment for the following sequence: AGLEDYDRLRP [RAC3_Y64_Q61L]
Result: 0.744

Q: Please report phosphorylation enrichment for the following sequence: EKMWTYMRSAE [GRIA4_Y695]
Result: 0.602

Q: Look up and state reported phosphorylation enrichment for TDLAFYLVRKG [ASL_Y376_YF]
Result: 0.988

Q: Tell me phosphorylation enrichment reported for RPFFLYVAFHN [SGSH_Y174_D179N]
Result: 0.837

Q: # return recorded phosphorylation enrichment for entry TRSFDYTEGGD [FGF7_Y58_M59T_YF]
Result: 0.625

Q: Give me measured phosphorylation enrichment, please, for this sequence: IQSAKYDMAED [TTC21B_Y1213]
Result: 0.793

Q: Give a short answer stating reported phosphorylation enrichment for CGADSYEMEED [EGFR_Y316] .
Result: 0.899

Q: Assign phosphorylation enrichment to the following record: KQFWRYFAGNL [SLC25A4_Y112]
Result: 0.598

These entries and their values trace back to the supplement of paper PMC10065799.
